# targetUnderTest: ERK2 L235A (Rattus norvegicus (Rat), UniProt P63086, L235A)
# Sequence (P63086 whole entry L235A): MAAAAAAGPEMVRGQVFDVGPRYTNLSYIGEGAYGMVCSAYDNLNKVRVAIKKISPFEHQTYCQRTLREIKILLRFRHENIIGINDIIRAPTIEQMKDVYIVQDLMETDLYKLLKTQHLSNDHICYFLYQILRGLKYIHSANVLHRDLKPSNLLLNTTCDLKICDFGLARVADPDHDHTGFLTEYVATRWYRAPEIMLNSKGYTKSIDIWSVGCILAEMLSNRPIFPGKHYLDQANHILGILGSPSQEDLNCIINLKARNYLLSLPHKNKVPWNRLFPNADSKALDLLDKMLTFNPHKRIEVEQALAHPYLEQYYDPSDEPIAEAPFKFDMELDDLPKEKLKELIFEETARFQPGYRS
# protocolDetails: Fluorescence quenching (FQ) binding affinity
# testConditions: read-out: KD L235A (Site 5)
propertyLabel: Kd (µM)
Report as a plain number; the unit µM is understood.

Please give measured Kd of the following entry: O=S1(=O)C=CC(OS(=O)(=O)c2ccccc2)C1 (stereo not shown)
0.09

---

# Test system: HL-60 leukemic cells
# protocolDetails: Cell proliferation WST-1 assay, single dose (Example 4)
# Type: cell-based
# testConditions: 100 μM, 48 hours
propertyLabel: Cell Viability (% of Vehicle) HL-60

Solved entries:
molecule	Cell Viability (% of Vehicle) HL-60
NCCN1C(=O)S/C(=C\c2ccc(O)cc2)C1=O [Compound 30f]	17 ± 12 % of Vehicle
CCOc1ccc(/C=C2\SC(=O)N(CCN(Cc3ccccc3)Cc3ccccc3)C2=O)cc1 [Compound 24b]	109 ± 24 % of Vehicle
CCOc1ccc(/C=C2\CC(=O)N(CCN)C2=O)cc1	58 ± 28 % of Vehicle
CCOc1ccc(/C=C2\SC(=O)N(Cc3ccccc3)C2=O)cc1 [Compound 28i]	65 ± 1 % of Vehicle
N#Cc1ccc(COc2ccccc2/C=C2\SC(=O)N(CCN)C2=O)cc1 [Compound 30l]	5.7 ± 2 % of Vehicle

Please turn your attention to the following entry.
# return Cell Viability (% of Vehicle) HL-60 for CCCN1C(=O)S/C(=C\c2ccc(OCC)cc2)C1=O [Compound 28d] , test system: HL-60 leukemic cells
80 ± 26 % of Vehicle

---

Here, each record is paired with measured Cell Viability (% of Vehicle) HL-60 data.
# Test system: HL-60 leukemic cells
# protocolDetails: Cell proliferation WST-1 assay, single dose (Example 4)
# Assay type: cell-based
# testConditions: 100 μM, 48 hours

compound	Cell Viability (% of Vehicle) HL-60
CCOc1ccc(/C=C2\SC(=O)N(Cc3ccc([N+](=O)[O-])cc3)C2=O)cc1 [Compound 28n]	97 ± 23 % of Vehicle

Please give measured Cell Viability (% of Vehicle) HL-60 of the following entry: CCOc1ccc(/C=C2\SC(=O)N(CCNCc3ccc(C#N)cc3)C2=O)cc1 [Compound 23e]
75 ± 25 % of Vehicle

Please give measured Cell Viability (% of Vehicle) HL-60 of the following entry: CCOc1ccc(/C=C2\SC(=O)N(CCN)C2=O)cc1 [Compound 76]
4.4 ± 1 % of Vehicle

Please give measured Cell Viability (% of Vehicle) HL-60 of the following entry: CCOc1ccc(/C=C2\SC(=O)N(CCNC)C2=O)cc1 [Compound 23a]
17 ± 11 % of Vehicle

Please give measured Cell Viability (% of Vehicle) HL-60 of the following entry: CC(C)COc1ccc(/C=C2\SC(=O)N(CCN)C2=O)cc1 [Compound 30g]
5.0 ± 2 % of Vehicle

---

# Test system: HeLa cervical carcinoma cells
# protocolDetails: Cell proliferation WST-1 assay, single dose (Example 4)
# Type: cell-based
# testConditions: 100 μM, 48 hours
propertyLabel: Cell Viability (% of Vehicle) HeLa

Solved entries:
molecule	Cell Viability (% of Vehicle) HeLa
CCOc1ccc(/C=C2\SC(=O)N(Cc3ccccc3C(=O)O)C2=O)cc1 [Compound 28s]	61 ± 4 % of Vehicle
CCOc1ccc(/C=C2\SC(=O)N(CCN(Cc3ccccc3)Cc3ccccc3)C2=O)cc1 [Compound 24b]	92 ± 9 % of Vehicle
CCOc1ccc(/C=C2\SC(=O)N(CCN(C)C)C2=O)cc1 [Compound 24a]	90 ± 5 % of Vehicle
CC(C)COc1ccc(/C=C2\SC(=O)N(CCN)C2=O)cc1 [Compound 30g]	48 ± 3 % of Vehicle
NCCN1C(=O)S/C(=C\c2ccc(O)cc2)C1=O [Compound 30f]	63 ± 10 % of Vehicle
CCOc1ccc(/C=C2\SC(=O)N(CCNC(C)=O)C2=O)cc1 [Compound 25a]	100 ± 11 % of Vehicle
CCOc1ccc(/C=C2\CC(=O)N(CCN)C2=O)cc1	75 ± 2 % of Vehicle
CCOc1ccc(/C=C2\SC(=O)NC2=O)cc1	98 ± 13 % of Vehicle

Please give measured Cell Viability (% of Vehicle) HeLa of the following entry: CCOc1ccc(/C=C2\SC(=O)N(Cc3cccc(N)n3)C2=O)cc1 [Compound 28b]
87 ± 6 % of Vehicle

Please give measured Cell Viability (% of Vehicle) HeLa of the following entry: CCOc1ccc(/C=C2\SC(=O)N(CCO)C2=O)cc1 [Compound 28e]
91 ± 2 % of Vehicle

Please give measured Cell Viability (% of Vehicle) HeLa of the following entry: CCOc1ccc(/C=C2\SC(=O)N(CCNS(=O)(=O)c3ccc(C#N)cc3)C2=O)cc1 [Compound 27b]
90 ± 4 % of Vehicle

Please give measured Cell Viability (% of Vehicle) HeLa of the following entry: CCOc1ccc(/C=C2\SC(=O)N(Cc3cnc[nH]3)C2=O)cc1 [Compound 28a]
80 ± 4 % of Vehicle

Please give measured Cell Viability (% of Vehicle) HeLa of the following entry: CCOc1ccc(/C=C2\SC(=O)N(CCNCc3ccc(C#N)cc3)C2=O)cc1 [Compound 23e]
88 ± 2 % of Vehicle

Please give measured Cell Viability (% of Vehicle) HeLa of the following entry: CCOc1ccc(/C=C2\SC(=O)N(C(C)CN)C2=O)cc1 (centres unmarked) [Compound 22c]
45 ± 7 % of Vehicle

Please give measured Cell Viability (% of Vehicle) HeLa of the following entry: CCOc1cccc(/C=C2\SC(=O)N(CCN)C2=O)c1 [Compound 30b]
40 ± 1 % of Vehicle

Please give measured Cell Viability (% of Vehicle) HeLa of the following entry: CCOc1ccc(/C=C2\SC(=O)N(Cc3ccc(C#N)cc3)C2=O)cc1 [Compound 28m]
95 ± 3 % of Vehicle

Please give measured Cell Viability (% of Vehicle) HeLa of the following entry: CCOc1ccc(/C=C2\SC(=O)N(CCNC(=O)c3ccc(C#N)cc3)C2=O)cc1 [Compound 25d]
99 ± 9 % of Vehicle

Please give measured Cell Viability (% of Vehicle) HeLa of the following entry: CCOc1ccc(/C=C2\CCN(CCN)C2=O)cc1
89 ± 4 % of Vehicle

Please give measured Cell Viability (% of Vehicle) HeLa of the following entry: CCNCCN1C(=O)S/C(=C\c2ccc(OCC)cc2)C1=O [Compound 23b]
81 ± 2 % of Vehicle

Please give measured Cell Viability (% of Vehicle) HeLa of the following entry: NCCN1C(=O)S/C(=C\c2ccccc2)C1=O [Compound 30a]
82 ± 10 % of Vehicle
